// reported fold change of affinity per item
- target under test: T1, Human CD137 ECD (human)
- T1 construct: entry includes C-terminal His-tag and biotin acceptor peptide; also called human CD137 extracellular domain; 4-1BB
- T1 sequence (chain, as listed by the source limits assumed): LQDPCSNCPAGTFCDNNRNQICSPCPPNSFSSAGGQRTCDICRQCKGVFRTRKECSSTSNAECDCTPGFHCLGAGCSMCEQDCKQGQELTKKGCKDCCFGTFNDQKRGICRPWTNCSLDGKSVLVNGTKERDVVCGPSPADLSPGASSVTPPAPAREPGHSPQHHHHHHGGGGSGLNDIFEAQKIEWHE
- protocol: Biacore SPR, vs parent H183/L072
State the answer as a number, implicitly in fold.

Below, each entry is followed by its recorded fold change of affinity result.
H183/L072 VL N53I (antibody, name in Kabat numbering, V domains shown, Dual-Ig) VH: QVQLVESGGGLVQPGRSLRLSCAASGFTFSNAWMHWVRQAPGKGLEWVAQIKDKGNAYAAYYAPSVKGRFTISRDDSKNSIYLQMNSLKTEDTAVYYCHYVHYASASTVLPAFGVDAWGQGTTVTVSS VL: DIVMTQSPLSLPVTPGEPASISCQASQELVHMNRNTYLHWYQQKPGQAPRLLIYKVSIRFPGVPDRFSGSGSGTDFTLKISRVEAEDVGVYYCAQGTSVPFTFGQGTKLEIK ... 0.2
H183/L072 VL N28T (antibody, name in Kabat numbering, V domains shown, Dual-Ig) VH: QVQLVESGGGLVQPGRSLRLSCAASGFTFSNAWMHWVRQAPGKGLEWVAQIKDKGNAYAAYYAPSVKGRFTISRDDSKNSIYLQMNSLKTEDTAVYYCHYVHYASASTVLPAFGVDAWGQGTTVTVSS VL: DIVMTQSPLSLPVTPGEPASISCQASQELVHMTRNTYLHWYQQKPGQAPRLLIYKVSNRFPGVPDRFSGSGSGTDFTLKISRVEAEDVGVYYCAQGTSVPFTFGQGTKLEIK ... 0.5
H183/L072 VL V27cN (antibody, name in Kabat numbering, V domains shown, Dual-Ig) VH: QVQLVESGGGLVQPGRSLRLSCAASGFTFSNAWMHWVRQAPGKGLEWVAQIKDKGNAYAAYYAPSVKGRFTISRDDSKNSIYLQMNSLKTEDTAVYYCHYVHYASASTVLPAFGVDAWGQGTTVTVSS VL: DIVMTQSPLSLPVTPGEPASISCQASQELNHMNRNTYLHWYQQKPGQAPRLLIYKVSNRFPGVPDRFSGSGSGTDFTLKISRVEAEDVGVYYCAQGTSVPFTFGQGTKLEIK ... 0.5
H183/L072 VL N28R (antibody, name in Kabat numbering, V domains shown, Dual-Ig) VH: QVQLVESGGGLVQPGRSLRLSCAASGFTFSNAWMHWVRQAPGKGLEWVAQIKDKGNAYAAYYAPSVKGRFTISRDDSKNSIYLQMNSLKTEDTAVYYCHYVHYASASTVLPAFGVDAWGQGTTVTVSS VL: DIVMTQSPLSLPVTPGEPASISCQASQELVHMRRNTYLHWYQQKPGQAPRLLIYKVSNRFPGVPDRFSGSGSGTDFTLKISRVEAEDVGVYYCAQGTSVPFTFGQGTKLEIK ... 0.4

Value of fold change of affinity reported for the binder H183/L072 VL R54L (antibody, name in Kabat numbering, V domains shown, Dual-Ig) VH: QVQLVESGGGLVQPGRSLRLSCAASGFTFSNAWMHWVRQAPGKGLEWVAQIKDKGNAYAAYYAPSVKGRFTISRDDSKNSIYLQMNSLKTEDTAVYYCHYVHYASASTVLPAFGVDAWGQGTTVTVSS VL: DIVMTQSPLSLPVTPGEPASISCQASQELVHMNRNTYLHWYQQKPGQAPRLLIYKVSNLFPGVPDRFSGSGSGTDFTLKISRVEAEDVGVYYCAQGTSVPFTFGQGTKLEIK is 0.9
